Starred links: 1 amine or outer side, 2 acyl side, 3 side chain; linkers in the order of their positions; H or OH if unused. Residues, ends and D or L forms follow the SMILES beside them. Suc = O=C(CCC(=O)[*:2])[*:1]
assay_readout: melting point

# example entries with known answers
INSERT INTO measurements (compound, result) VALUES
  ('CCCCn1c(=O)[nH]c(=O)c2c3n(nc21)CCN3', '239 to 240 °C'),
  ('CC1(C)CC(=O)c2c(ncc3[nH]c4ccccc4c23)C1', '224 to 225 °C'),
  ('CCOC(=O)c1cn(-c2ccc(OC)cc2F)c2cc(F)c(F)cc2c1=O', '170 to 171 °C'),
  ('O=c1[nH]nc(OCC2c3ccccc3-c3ccccc32)o1', '125 °C'),
  ('COc1cc(CCCC(=O)O)ccc1C', '69 to 70 °C'),
  ('CCCCc1nc(CC(NC(C)=O)(C(=O)OCC)C(=O)OCC)c[nH]1', '80 to 92 °C');

Looking for the measured melting point of Cc1c(SCCN2CCOCC2)ccnc1CSc1nc2ccccc2n1CC(N)=O , can you help? 178 to 180 °C

Looking for the measured melting point of CCNC(=O)C1CCCN1C(=O)C(C)NC(=O)C(C)NC(=O)CCC(=O)O (stereo not drawn) (Suc-Ala-Ala-Pro-NHEt; configuration not given here) , can you help? 185 to 186 °C

Looking for the measured melting point of COc1cc(C)c([N+](=O)[O-])cc1F , can you help? 95 to 95.5 °C

Looking for the measured melting point of CC(C)(C)[Si](C)(C)N1C(=O)C[C@H]1CI , can you help? 71 to 72 °C
